Reported Cmax values follow for various compounds
# Procedure Details: in vivo
# Experimental Context: rat, in vivo, po, 200 mg/kg

- Compound: "O=C(O)[C@H](O)[C@@H](O)[C@H](O)[C@H](O)CO [calcium gluconate, reference compound]"
  Cmax / ng/mL: 32100
- Compound: "O=C(O)[C@H](O)[C@@H](O)CO [calcium L-threonate]"
  Cmax / ng/mL: 27200
- Compound: "CC(=O)O [calcium acetate]"
  Cmax / ng/mL: 24900
- Compound: "O=C(O)O [calcium carbonate]"
  Cmax / ng/mL: 31100

###

# Procedure Details: in vivo
# Experimental Context: rat, in vivo, po
Property: Vd/F (L/kg)

- Compound: "O=C(O)[C@H](O)[C@@H](O)CO [calcium L-threonate]"
  Readout Value: 6.69
